Source listed as PubChem BioAssay (NCI).

System: SR leukemia
Assay: NCI tumour cell line growth inhibition, 48 h
TGI reference

{"Compound": "CC(=O)N1c2ccccc2N(C(C)=O)C1c1ccc(C2N(C(C)=O)c3ccccc3N2C(C)=O)[nH]1", "Quantity kind": "TGI", "Meas value": "> 100 µM"}
{"Compound": "COc1ccc(C2c3ccc4ccccc4c3Oc3ncn(CCCn4ccnc4)c(=N)c32)cc1OC (stereo unspecified)", "Quantity kind": "TGI", "Meas value": "4.15 µM"}
{"Compound": "CC(=O)OCC1OC(SC2=N/C(=C\\c3ccc(Br)s3)C(=O)N2c2ccccc2)C(OC(C)=O)C(OC(C)=O)C1OC(C)=O (stereo unspecified)", "Quantity kind": "TGI", "Meas value": "> 100 µM"}
{"Compound": "C=C(CN(C)C)C(=O)c1ccccc1OC", "Quantity kind": "TGI", "Meas value": "> 56 µM"}

Query block: Returns the measured TGI for the input compound. Input: `CCn1nc(C2CCN(C(=O)CCO)CC2)nc1-c1cnc(N)c(-c2nnc(C(C)(C)C)o2)n1`
Result block: > 88.4 µM

Query block: Entry under review: `COc1ccc2cc3c4cc(OC)c(OC)cc4ccn3c2c1` . Reported TGI?
Result block: > 100 µM
